# Target system: parental receptor binding domain (RBD) protein (amino acids 319 to 541 of the spike protein) with c-terminal … (SARS-CoV-2 (Wuhan-Hu-1), UniProt P0DTC2 319-541)
# Procedure summary: ELISA, RBD coated, IgG detected with anti-human Fc-HRP
pEC50: −log10 of the molar value.
Measured parameter: pEC50

Binder	Measured parameter	Obs value
RBD F4 chimeric bovine-human IgG1 antibody (antibody, V domains shown) VH: QVQLRESGPSLVKPSQTLSLTCTVSGFSLSSNGVVWVRQAPGKALEWLGDICSTGGTSFNPALKSRLSIAKDNSKSQVSLSVRSVTPEDTATYYCARSRGYDCYANVDALDYVDAWGQGLLVTVSS VL: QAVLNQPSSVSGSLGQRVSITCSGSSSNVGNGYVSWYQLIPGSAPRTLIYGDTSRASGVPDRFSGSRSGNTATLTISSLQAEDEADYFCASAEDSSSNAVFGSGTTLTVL	pEC50	10.52
RBD A2 chimeric bovine-human IgG1 antibody (antibody, V domains shown) VH: QVQLRESGPSLVKPLQILSLTCTVSGFSLSSNGVVWVRQAPGKALEWLGDICSTGGTSFNPALKSRLSIAKDNSKSQVSLSVRSVTPEDTATYYCARSRGYDCYANVDALDYVDAWGQGLLVTVSS VL: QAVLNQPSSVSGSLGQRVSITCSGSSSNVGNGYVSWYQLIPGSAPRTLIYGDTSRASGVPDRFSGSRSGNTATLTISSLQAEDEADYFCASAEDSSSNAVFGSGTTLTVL	pEC50	10.52
R2F12 ultralong CDR3 chimeric bovine-human IgG1 antibody (antibody) VH: QVQLRESGPSLVKPSQTLSLTCTVSGFSLSDKAVGWVRRAPGKALEWLGSIDTGGMTGYNPGLKSRLSITKDNSKSQVSLSVNSVTTEDSATYYCATVDQKTKNACPDDFDYRCSCIGGCGCARKGCVGPLCCRSDLGGYLTDSPAYIYEWYIDLWGQGLLVTVSS VL: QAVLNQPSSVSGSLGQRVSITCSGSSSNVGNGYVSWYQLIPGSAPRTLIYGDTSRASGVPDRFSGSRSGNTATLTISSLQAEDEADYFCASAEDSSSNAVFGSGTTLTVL	pEC50	10.07
R2D6 chimeric bovine-human IgG1 antibody (antibody, V domains shown) VH: QVQLRESGPSLVKPSQTLSLTCTTSGFSLSSYAVGWVRQAPGKALEWVGDIDYVGNTDYNPALKSRLSITKDNSKSQVSLVVSSVTAEDAATYYCAKYSGAYAYAACNYYGWRCAWESYIDAWGQGLLVTVSS VL: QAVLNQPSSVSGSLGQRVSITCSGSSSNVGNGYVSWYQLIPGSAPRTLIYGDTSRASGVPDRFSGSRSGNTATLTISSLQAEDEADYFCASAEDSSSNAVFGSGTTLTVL	pEC50	9.24
R2G3 ultralong CDR3 chimeric bovine-human IgG1 antibody (antibody) VH: QVQLRESGPSLVKPSQTLSLTCAASGFSLSDKAVGWVRRAPGKALEWLGSIDTGGSTGYNPGLKSRLSITKDNSKSQVSLSISSVTSEDSATYYCATVHQKTAEGDKTCPDGYEHTCGCIGGCGCKRSACIGALCCQASLGGWLSDGETYTYEFHVDTWGQGLVVTVSS VL: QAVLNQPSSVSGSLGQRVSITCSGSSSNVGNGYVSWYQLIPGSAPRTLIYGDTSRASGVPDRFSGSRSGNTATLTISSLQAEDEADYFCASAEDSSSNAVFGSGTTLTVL	pEC50	10.25
RBD C6 chimeric bovine-human IgG1 antibody (antibody, V domains shown) VH: QVQLRESGPSLVKPSQTLSLTCTVSGFSLSSNGVVWVRQAPGRPLEWLGDICSNGGTSFNPALKSRLSIAKDNSESQVSLTVRSVTPEDTATYYCARSRGYDCYAYVYALDTVDAWGQGLLVTVSS VL: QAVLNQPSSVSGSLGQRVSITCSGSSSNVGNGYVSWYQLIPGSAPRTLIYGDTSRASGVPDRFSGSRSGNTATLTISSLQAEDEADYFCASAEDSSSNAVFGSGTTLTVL	pEC50	10.52
